Provenance of the data: patent US11912723B2

Reported IC50 values for the following compounds.
target: KRAS G12D/RAF1 (Homo sapiens, UniProt P01116, G12D)
Construct: KRAS (1-169) proteins were expressed in E. coli at 18° C; His6-MBP (N, cleaved yes)
Sequence (P01116 1-169 isoform P01116-2 G12D): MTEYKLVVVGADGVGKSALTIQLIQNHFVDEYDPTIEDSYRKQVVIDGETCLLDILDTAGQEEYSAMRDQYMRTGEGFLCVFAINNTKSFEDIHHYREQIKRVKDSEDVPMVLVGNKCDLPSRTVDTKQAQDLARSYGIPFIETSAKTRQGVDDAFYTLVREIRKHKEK
test.description: Protein-protein interaction (PPI) HTRF assay KRAS G12D/RAF1
experimental.conditions: KRAS G12D/RAF1, GppNHp-loaded KRAS; 30 minutes pre-incubation

Worked set:
- compound: "CN1Cc2c(nc(OC[C@@]34CCCN3C[C@H](F)C4)nc2N2CCn3cncc3C2)C[C@]12CCCc1ccccc12"
  target: "KRAS G12D/RAF1 (Homo sapiens, UniProt P01116, G12D)"
  IC50: "> 100 µM"
- compound: "F[C@H]1CN2CCC[C@@]2(COc2nc3c(c(N4C[C@H]5CC[C@@H](C4)N5)n2)COC2(CCc4c(Cl)cccc42)C3)C1 (stereo partly drawn)"
  target: "KRAS G12D/RAF1 (Homo sapiens, UniProt P01116, G12D)"
  IC50: "10 to 100 µM"

Next, consider the following compound.
Can you look up the measured IC50 of CNCc1nn2c(c1Cl)CN(c1nc(OC[C@@]34CCCN3C[C@H](F)C4)nc3c1CO[C@@]1(CCc4c(Cl)cccc41)C3)CCC2 for me? > 100 µM
